tested on: Escherichia coli; assay: Inhibition of GTPase activity of Escherichia coli FtsZ at 100 uM
Each entry below lists one item and its recorded inhibition value.

Compound: Cc1ccc(F)cc1S(=O)(=O)N[C@@H]1CCN(Cc2ccc(-c3ccccc3)cc2)C1
Target Or System: Escherichia coli
inhibition, %: 9.4
--
Compound: Cc1ccc(F)cc1S(=O)(=O)N[C@@H]1CCN(Cc2ccc3c(c2)OCO3)C1
Target Or System: Escherichia coli
inhibition, %: 14.6
--
Compound: Cc1ccc(F)cc1S(=O)(=O)N[C@@H]1CCN(C(=O)c2ccc(OC(C)C)cc2)C1
Target Or System: Escherichia coli
inhibition, %: 31.9
--
Compound: Cc1ccc(F)cc1S(=O)(=O)N[C@@H]1CCN(Cc2ccc(Br)cc2)C1
Target Or System: Escherichia coli
inhibition, %: 31.5

* * *

Reported inhibition values follow for various compounds
system: Escherichia coli; experiment: Inhibition of GTPase activity of Escherichia coli FtsZ at 100 uM

Compound: Cc1ccc(F)cc1S(=O)(=O)N[C@@H]1CCN(Cc2ccc(Oc3ccccc3)cc2)C1
Target Or System: Escherichia coli
Uom: %
inhibition: 12.3

Compound: Cc1ccc(F)cc1S(=O)(=O)N[C@@H]1CCN(Cc2cccc3[nH]ccc23)C1
Target Or System: Escherichia coli
Uom: %
inhibition: 29.9

Compound: Cc1ccc(F)cc1S(=O)(=O)N[C@@H]1CCN(Cc2ccc3[nH]ccc3c2)C1
Target Or System: Escherichia coli
Uom: %
inhibition: 24.9

Compound: Cc1ccc(F)cc1S(=O)(=O)N[C@@H]1CCN(Cc2ccc(CC(C)C)cc2)C1
Target Or System: Escherichia coli
Uom: %
inhibition: 13.7

Compound: Cc1ccc(F)cc1S(=O)(=O)N[C@@H]1CCN(Cc2ccc(C(F)(F)F)cc2)C1
Target Or System: Escherichia coli
Uom: %
inhibition: 26.9
